B1: library; numbered along this chain (parent)
chain: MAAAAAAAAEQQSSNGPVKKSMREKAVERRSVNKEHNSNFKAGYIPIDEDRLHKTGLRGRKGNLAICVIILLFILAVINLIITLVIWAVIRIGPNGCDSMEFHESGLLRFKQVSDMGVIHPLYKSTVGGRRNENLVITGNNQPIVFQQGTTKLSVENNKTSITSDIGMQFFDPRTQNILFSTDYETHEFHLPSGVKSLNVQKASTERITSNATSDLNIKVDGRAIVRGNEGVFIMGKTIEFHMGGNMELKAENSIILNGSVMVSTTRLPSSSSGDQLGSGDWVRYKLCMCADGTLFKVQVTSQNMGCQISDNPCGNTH

Variants of: B1
Test: SGCB cell-surface expression functional score (HA stain, bin4 vs bin1, normalised to synonymous) (log10 ratio); higher = more cell-surface SGCB (functional)
Would you mind labelling by SGCB cell-surface expression functional score (log10)? At or over 0.08 is Y, under is N.

mutations: T265F
assigned_label: Y
//
mutations: N33L
assigned_label: N
//
mutations: L80P
assigned_label: N
//
mutations: D50F
assigned_label: Y
//
mutations: S271I
assigned_label: N
//
mutations: I137A
assigned_label: N
//
mutations: K19P
assigned_label: Y
//
mutations: S31N
assigned_label: Y
//
mutations: R51T
assigned_label: N
//
mutations: L268W
assigned_label: Y
//
mutations: G194P
assigned_label: N
//
mutations: E10R
assigned_label: Y
//
mutations: I178K
assigned_label: N
//
mutations: V200Q
assigned_label: N
//
mutations: F73E
assigned_label: Y
//
mutations: F73A
assigned_label: Y
//
mutations: K124E
assigned_label: N
//
mutations: V32E
assigned_label: N
//
mutations: D221Q
assigned_label: Y
//
mutations: G56R
assigned_label: Y
